protocol_text: physchem
condition_description: buffer, pH 5
Parameter half-life: see the listing below.
measured_quantity: half-life (min)

[[record]]
structure_notation = "CC(C)C(=O)NCCC[Si](C)(C)O[Si](C)(C)CSc1ncccn1"
measured_quantity = "half-life"
reading_unit = "min"
reported = 2

[[record]]
structure_notation = "C[Si](C)(CCCC(=O)O)O[Si](C)(C)c1ccccc1"
measured_quantity = "half-life"
reading_unit = "min"
reported = 100

[[record]]
structure_notation = "CC(=O)NCCC[Si](C)(C)O[Si](C)(C)CSc1ncc(COCCOCCOCCn2cc(COCC(COCc3cn(CCOCCOCCOCc4cnc(SC[Si](C)(C)O[Si](C)(C)CCCNC(C)=O)nc4)nn3)(COCc3cn(CCOCCOCCOCc4cnc(SC[Si](C)(C)O[Si](C)(C)CCCNC(C)=O)nc4)nn3)NC(C)=O)nn2)cn1"
measured_quantity = "half-life"
reading_unit = "min"
reported = 60

[[record]]
structure_notation = "Cc1cc(C)nc(SC[Si](C)(C)O[Si](C)(C)C)n1"
measured_quantity = "half-life"
reading_unit = "min"
reported = 25

[[record]]
structure_notation = "CCOC(=O)CCC[Si](C)(C)O[Si](C)(C)CCCC(=O)O"
measured_quantity = "half-life"
reading_unit = "min"
reported = 20

[[record]]
structure_notation = "C[Si](C)(C)O[Si](C)(C)CS(=O)(=O)c1ncccn1"
measured_quantity = "half-life"
reading_unit = "min"
reported = 35

[[record]]
structure_notation = "C[Si](C)(COc1ncccn1)O[Si](C)(C)COc1ncccn1"
measured_quantity = "half-life"
reading_unit = "min"
reported = 25

